- Assay System: hAChE (Homo sapiens, UniProt P22303)
- Construct: gene ACHE; commercial recombinant human enzyme (Sigma-Aldrich)
- Sequence (P22303 32-614): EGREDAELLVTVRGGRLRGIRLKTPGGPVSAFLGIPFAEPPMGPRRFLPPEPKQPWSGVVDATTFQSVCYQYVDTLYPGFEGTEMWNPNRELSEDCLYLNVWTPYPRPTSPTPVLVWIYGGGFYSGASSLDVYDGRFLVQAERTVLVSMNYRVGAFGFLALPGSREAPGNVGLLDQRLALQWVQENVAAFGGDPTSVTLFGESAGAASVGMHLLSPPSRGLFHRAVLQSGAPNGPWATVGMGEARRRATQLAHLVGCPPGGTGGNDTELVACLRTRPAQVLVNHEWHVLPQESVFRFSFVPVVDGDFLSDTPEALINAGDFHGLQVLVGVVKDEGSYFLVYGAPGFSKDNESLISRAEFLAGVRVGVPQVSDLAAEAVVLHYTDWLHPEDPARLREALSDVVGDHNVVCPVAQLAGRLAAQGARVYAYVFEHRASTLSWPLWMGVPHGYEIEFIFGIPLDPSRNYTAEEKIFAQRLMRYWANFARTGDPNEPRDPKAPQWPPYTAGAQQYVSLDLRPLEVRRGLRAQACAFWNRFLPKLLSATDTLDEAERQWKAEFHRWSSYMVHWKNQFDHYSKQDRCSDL
- Assay Notes: Ellman assay, 96-well, […] nm
- Format: biochemical
Parameter: IC50

Record excerpt, results attached:
CNC(=O)Oc1cc(C(C)(C)C)ccc1Br [1d] :: 48 nM
CNC(=O)Oc1cc(C(C)(C)C)ccc1SCC(C)C [1n] :: 4700 nM
C=CCNC(=O)c1ccc(OC(=O)NC)cc1C(C)(C)C [1h] :: 2800 nM
CNC(=O)Oc1cc(C(C)(C)C)ccc1I [1e] :: 640 nM
CC[Si](C)(C)c1cc(F)cc(OC(=O)NC)c1 [4g] :: 1900 nM

Please state, for each entry, its recorded IC50.
1. CNC(=O)Oc1ccc(Br)c(C(C)(C)C)c1 [1b]
2. CNC(=O)Oc1cc(C(C)(C)C)ccc1SC [1m]
3. CCN(CC)C(=O)c1ccc(OC(=O)NC)cc1C(C)(C)C [1k]
4. CNC(=O)Oc1ccc(C(=O)NC)c(C(C)(C)C)c1 [1i]
5. CNC(=O)Oc1ccc(C)c([Si](C)(C)C)c1 [3c]

1: 1200 nM; 2: 640 nM; 3: 2300 nM; 4: > 100000 nM; 5: 2400 nM

For record CCCSc1ccccc1OC(=O)NC [6a, 2-(propylthio)phenyl methylcarbamate] the listed IC50 is 2300 nM
